- tgt: EGFR L858R (Homo sapiens (Human), UniProt P00533, L858R)
- Sequence (P00533 25-1210 L858R): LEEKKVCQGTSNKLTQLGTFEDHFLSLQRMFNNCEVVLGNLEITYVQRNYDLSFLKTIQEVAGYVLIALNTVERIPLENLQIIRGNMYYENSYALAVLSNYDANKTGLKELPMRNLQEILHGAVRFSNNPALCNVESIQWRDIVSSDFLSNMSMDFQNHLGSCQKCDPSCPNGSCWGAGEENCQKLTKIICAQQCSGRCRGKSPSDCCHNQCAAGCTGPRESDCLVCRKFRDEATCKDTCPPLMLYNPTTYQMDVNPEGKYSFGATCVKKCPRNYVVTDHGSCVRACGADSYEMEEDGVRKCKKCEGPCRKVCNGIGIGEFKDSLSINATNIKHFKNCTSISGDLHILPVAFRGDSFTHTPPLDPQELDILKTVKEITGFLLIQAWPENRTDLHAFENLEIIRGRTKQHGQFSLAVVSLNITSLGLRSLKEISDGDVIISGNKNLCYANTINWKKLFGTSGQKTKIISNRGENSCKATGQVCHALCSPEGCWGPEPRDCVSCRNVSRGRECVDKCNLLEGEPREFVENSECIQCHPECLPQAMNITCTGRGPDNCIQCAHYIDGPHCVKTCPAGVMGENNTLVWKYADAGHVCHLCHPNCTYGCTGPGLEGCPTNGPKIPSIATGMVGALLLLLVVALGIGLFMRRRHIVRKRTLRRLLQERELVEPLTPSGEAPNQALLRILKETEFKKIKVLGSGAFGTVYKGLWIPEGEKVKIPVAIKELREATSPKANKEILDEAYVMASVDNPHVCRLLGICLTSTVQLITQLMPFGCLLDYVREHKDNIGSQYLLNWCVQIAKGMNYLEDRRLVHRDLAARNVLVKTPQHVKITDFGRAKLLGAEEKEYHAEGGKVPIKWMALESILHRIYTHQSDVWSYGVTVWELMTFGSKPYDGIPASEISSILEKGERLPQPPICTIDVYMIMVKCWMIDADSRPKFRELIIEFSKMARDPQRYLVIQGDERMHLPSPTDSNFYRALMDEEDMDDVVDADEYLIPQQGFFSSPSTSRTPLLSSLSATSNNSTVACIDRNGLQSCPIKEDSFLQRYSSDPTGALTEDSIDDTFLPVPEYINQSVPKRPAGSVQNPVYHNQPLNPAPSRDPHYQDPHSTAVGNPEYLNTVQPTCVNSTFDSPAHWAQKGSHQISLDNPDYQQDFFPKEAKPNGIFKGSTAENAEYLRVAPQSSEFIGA
- experiment-description: Biochemical EGFR inhibition assay, EGFR L858R
- measurement-conditions: Caliper mobility shift; 1.0 mM ATP or ATP Km; read-out: Enz EGFR_L858R IC50
readout-type: IC50 (nM)

Examples from the recorded data:
[[record]]
molecule = "COc1cc2ncnc(-c3cn(C)nc3-c3ccccc3)c2cc1O[C@@H]1CCOC[C@H]1F"
tgt = "EGFR L858R (Homo sapiens (Human), UniProt P00533, L858R)"
readout_type = "IC50"
recorded_result = 3.1

[[record]]
molecule = "CCOc1cc2ncnc(-c3cn(C)nc3-c3ccc(F)cc3)c2nc1NC(=O)[C@@]12COC[C@@H]1C2 (single isomer, unassigned)"
tgt = "EGFR L858R (Homo sapiens (Human), UniProt P00533, L858R)"
readout_type = "IC50"
recorded_result = 1.7

[[record]]
molecule = "COc1cc2ncnc(-c3cn(C)nc3-c3ccccc3)c2cc1OC(=O)N1CCN(C)CC1(C)C"
tgt = "EGFR L858R (Homo sapiens (Human), UniProt P00533, L858R)"
readout_type = "IC50"
recorded_result = 7

[[record]]
molecule = "CCOc1cc2ncnc(-c3cn(C(C)C)nc3-c3ccccc3)c2cc1CO"
tgt = "EGFR L858R (Homo sapiens (Human), UniProt P00533, L858R)"
readout_type = "IC50"
recorded_result = 1.4

[[record]]
molecule = "CCOc1cc2ncnc(-c3cn(C)nc3-c3ccccc3)c2cc1NC(=O)[C@@]12COC[C@@H]1C2"
tgt = "EGFR L858R (Homo sapiens (Human), UniProt P00533, L858R)"
readout_type = "IC50"
recorded_result = 1.3


a = COc1cc2ncnc(-c3cn(C)nc3-c3ccccc3)c2nc1NC(=O)c1cn(C(C)C)nc1C
b = COc1cc2ncnc(-c3cn(CC(F)F)nc3-c3ccccc3)c2cc1NC(=O)c1cccnc1
Query :: Response body: label of entry with the larger IC50; valid values a , b . Indicate your choice by writing its label.
Result :: a
(a: 3.4 nM, b: 2.3 nM)

1 = Cn1cc(-c2ncnc3cc(OC4CC4)c(NC(=O)[C@]45COCC4C5)nc23)c(-c2ccccc2)n1 (stereo partly shown)
2 = COc1cc2ncnc(-c3cn(C)nc3-c3ccccc3)c2cc1NC(=O)c1ccncc1Cl
Query :: Field: entry with larger IC50 (options 1 / 2 ). Respond using the label that marks the chosen record.
Result :: 1

----------
- tgt: pEGFR (Tyr1068) in PC-9 cells (Ex19Del) (Homo sapiens (Human), UniProt P00533, DEL746-750)
- Sequence (P00533 other isoform, or with tags, fused parts or gaps del 746-750): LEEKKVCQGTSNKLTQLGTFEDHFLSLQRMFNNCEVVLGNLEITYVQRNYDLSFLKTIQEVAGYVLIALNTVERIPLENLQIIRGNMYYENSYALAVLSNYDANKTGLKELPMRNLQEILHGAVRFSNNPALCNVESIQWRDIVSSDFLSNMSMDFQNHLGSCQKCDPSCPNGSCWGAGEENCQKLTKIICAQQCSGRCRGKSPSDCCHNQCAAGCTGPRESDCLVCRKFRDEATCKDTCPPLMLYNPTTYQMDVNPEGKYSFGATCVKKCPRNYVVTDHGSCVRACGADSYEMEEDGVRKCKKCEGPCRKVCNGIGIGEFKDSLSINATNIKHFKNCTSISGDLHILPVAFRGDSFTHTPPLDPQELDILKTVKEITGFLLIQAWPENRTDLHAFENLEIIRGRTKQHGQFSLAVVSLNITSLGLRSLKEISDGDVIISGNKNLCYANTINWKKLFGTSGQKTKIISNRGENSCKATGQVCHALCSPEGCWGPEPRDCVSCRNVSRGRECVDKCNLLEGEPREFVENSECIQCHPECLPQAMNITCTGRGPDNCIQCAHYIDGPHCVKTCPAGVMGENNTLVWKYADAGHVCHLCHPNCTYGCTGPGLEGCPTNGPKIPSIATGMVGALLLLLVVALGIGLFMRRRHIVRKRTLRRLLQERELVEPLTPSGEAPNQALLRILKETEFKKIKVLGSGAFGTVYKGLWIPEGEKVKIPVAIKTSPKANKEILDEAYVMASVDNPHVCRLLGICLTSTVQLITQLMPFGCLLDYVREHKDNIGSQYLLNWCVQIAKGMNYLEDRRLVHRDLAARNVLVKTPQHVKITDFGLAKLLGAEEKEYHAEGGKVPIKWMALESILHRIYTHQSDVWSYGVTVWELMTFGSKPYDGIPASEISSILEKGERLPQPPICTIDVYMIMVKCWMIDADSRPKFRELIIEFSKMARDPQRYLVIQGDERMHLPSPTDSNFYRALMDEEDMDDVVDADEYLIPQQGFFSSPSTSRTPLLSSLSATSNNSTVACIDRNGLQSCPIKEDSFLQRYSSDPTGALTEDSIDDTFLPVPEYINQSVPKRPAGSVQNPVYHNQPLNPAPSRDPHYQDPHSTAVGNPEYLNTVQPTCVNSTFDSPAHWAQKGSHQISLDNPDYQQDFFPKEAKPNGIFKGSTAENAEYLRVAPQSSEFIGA
- experiment-description: PC-9 pEGFR AlphaLISA assay
- measurement-conditions: 4 hours incubation, p-EGFR (Tyr1068) AlphaLISA, read-out: Ext pEGFR_PC-9 Ex19Del IC50
pIC50: −log10 of the molar value.
readout-type: pIC50

Worked cases, answers included:
[[record]]
compound = "COc1cc2ncnc(-c3cn(C)nc3-c3ccccc3)c2cc1NC(=O)[C@H](C)N(C)C (single isomer, unassigned) [Example 236]"
recorded_result = 8.41

[[record]]
compound = "CN(C)C12CC(C(=O)Nc3nc4c(-c5cn(C)nc5-c5ccccc5F)ncnc4cc3OC3CC3)(C1)C2"
recorded_result = 8.57

[[record]]
compound = "[2H]C([2H])([2H])N1CCN(C(=O)Nc2cc3c(-c4cn(C)nc4-c4ccccc4)ncnc3cc2OC)[C@@H](C)C1"
recorded_result = 8.35


P = COc1cc2ncnc(-c3cn(C)nc3-c3ccccc3)c2nc1NC(=O)C1(C(F)(F)F)CC1
Q = COc1cc2ncnc(-c3cn(C)nc3-c3ccccc3)c2cc1-c1cccc2c1nc(CO)n2C
R = COc1cc2ncnc(-c3cn(CC(F)F)nc3-c3ccccc3)c2nc1NC(=O)[C@]12C[C@H]1CN(C)C2 (single isomer, unassigned)
Query :: Hey, can you sort those compounds up there by pIC50, smallest first? Sort the labels as requested; that list is your answer.
Result :: Q, P, R
